Origin of the recorded values: patent EP4206196A1

Listed next: entries and their corresponding pKd.
measurement target: TYK2 (JH2domain-pseudokinase) (Homo sapiens, UniProt P29597)
Construct: TYK2 (JH2domain-pseudokinase)-tagged T7 phage strains were prepared in an E. coli host derived from the BL21 strain; made in house; host or cells: E. coli BL21-derived host (T7 phage) or HEK-293 cells
Sequence (P29597 589-875 limits assumed): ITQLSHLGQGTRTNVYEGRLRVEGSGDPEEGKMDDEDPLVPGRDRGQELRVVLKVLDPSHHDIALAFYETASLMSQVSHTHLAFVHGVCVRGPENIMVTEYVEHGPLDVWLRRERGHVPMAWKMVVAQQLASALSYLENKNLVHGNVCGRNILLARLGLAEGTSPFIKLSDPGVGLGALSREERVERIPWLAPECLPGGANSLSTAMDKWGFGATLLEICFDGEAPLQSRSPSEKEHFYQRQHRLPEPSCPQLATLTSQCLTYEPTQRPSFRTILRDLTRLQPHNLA
test: TYK2 JH2 domain binding assay (KINOMEscan)
Procedure: TYK2 (JH2domain-pseudokinase) KINOMEscan assay. […] Kds were determined using an 11-point 3-fold compound dilution series with three DMSO control points. […] The kinase concentration in the eluates was measured by qPCR. […] An 11-point 3-fold serial dilution of each test compound was prepared in 100% DMSO at 100x final test concentration and subsequently diluted to 1x in the assay (final DMSO concentration = 1%). Most Kds were determined using a compound top concentration = 30,000 nM. […]
pKd: −log10 of the molar value.

- Cc1cc(Nc2cc(Nc3ncc(C4CC4)cc3P(C)(C)=O)ncn2)nc(C)n1 [Example 171]: > 9.70
- Cc1cc(Nc2cc(Nc3ncc(C4CCCCO4)cc3N(C)S(C)(=O)=O)ncn2)nc(C)n1 (stereo not drawn) [Example 167]: > 9.70
- COc1c(Br)cccc1Nc1cc(Nc2cc(C)nc(C)n2)ncn1 [Example 50]: 8.00 to 9.00
- COc1c(Nc2cc(Nc3cc(C)nc(C)n3)ncn2)cccc1C(F)(F)F [Example 18]: 8.00 to 9.00
- Cc1cc(Nc2cc(Nc3ccccc3CS(C)(=O)=O)ncn2)nc(C)n1 [Example 66]: 9.00 to 9.70

Item Cc1cc(Nc2cc(Nc3ccccc3N(C)S(C)(=O)=O)ncn2)nc(C)n1 [Example 12] with TYK2 (JH2domain-pseudokinase) (Homo sapiens, UniProt P29597) - pKd?
> 9.70

Item Cc1cc(Nc2cc(Nc3ccccc3P(C)(C)=O)ncn2)nc(C)n1 [Example 28] with TYK2 (JH2domain-pseudokinase) (Homo sapiens, UniProt P29597) - pKd?
9.00 to 9.70

Item Cc1cc(Nc2cc(Nc3ccc(C4CCCOC4)cc3N(C)S(C)(=O)=O)ncn2)nc(C)n1 (stereo not drawn) [Example 105] with TYK2 (JH2domain-pseudokinase) (Homo sapiens, UniProt P29597) - pKd?
> 9.70

Item Cc1c(-c2cnc(Nc3cc(NC(=O)C4CC4)ncn3)c(P(C)(C)=O)c2)cnn1C [Example 161] with TYK2 (JH2domain-pseudokinase) (Homo sapiens, UniProt P29597) - pKd?
> 9.70

Item [2H]C([2H])([2H])N(c1ccccc1Nc1cc(Nc2cc(C)nc(C)n2)ncn1)S(C)(=O)=O [Example 34] with TYK2 (JH2domain-pseudokinase) (Homo sapiens, UniProt P29597) - pKd?
> 9.70

Item Cc1cc(Nc2cc(Nc3ncc(-c4cnn(C)c4C)cc3S(C)(=O)=O)ncn2)nc(C)n1 [Example 137] with TYK2 (JH2domain-pseudokinase) (Homo sapiens, UniProt P29597) - pKd?
> 9.70

Item Cc1cc(Nc2cc(Nc3ncc(-c4ccnn4C)cc3N(C)S(C)(=O)=O)ncn2)nc(C)n1 [Example 127] with TYK2 (JH2domain-pseudokinase) (Homo sapiens, UniProt P29597) - pKd?
9.00 to 9.70
